The following molecules each carry a recorded GI50 for Renal Cancer subpanel.
I only need the number, in µM, no unit after it.

Known results for molecules:
[
  {
    "compound.smiles": "C[C@H]1[C@H](C)CC[C@]2(C(=O)Nc3ccc4ncccc4c3)CC[C@]3(C)C(=CC[C@@H]4[C@@]5(C)CCCNC(C)(C)[C@@H]5CC[C@]43C)[C@H]12",
    "endpoint.value": 1.66
  },
  {
    "compound.smiles": "C=C(C)[C@@H]1CC[C@]2(C(=O)N[C@H](CO)Cc3ccccc3)CC[C@]3(C)[C@H](CC[C@@H]4[C@@]5(C)CCCNC(C)(C)[C@@H]5CC[C@]43C)[C@@H]12",
    "endpoint.value": 1.46
  },
  {
    "compound.smiles": "Cc1ccc(S(=O)(=O)OC[C@]23CCC(C)(C)C[C@H]2C2=CC[C@@H]4[C@@]5(C)CCCNC(C)(C)[C@@H]5CC[C@@]4(C)[C@]2(C)CC3)cc1",
    "endpoint.value": 2.13
  },
  {
    "compound.smiles": "Cc1ccc(S(=O)(=O)OC[C@@]2(C)CC[C@]3(C)CC[C@]4(C)C(=C3C2)C=C[C@@H]2[C@@]3(C)CCCNC(C)(C)[C@@H]3CC[C@]24C)cc1",
    "endpoint.value": 1.67
  }
]

From here, focus on the item given below.
# input GI50 for `C=C(C)[C@@H]1CC[C@]2(C)[C@H](C=CC3=C4C[C@@](C)(CO)CC[C@]4(C)CC[C@]32C)[C@@]1(C)CCCN` ?
# output 1.61

* * *

Test system: HOP-62 (NSC lung cancer)
test.details: NCI-60 screen (SRB, 48 h)
condition.parameters: Homo sapiens, HOP-62
measured.attribute: GI50 (µM)
I only need the number, in µM, no unit after it.

Known results for compounds:
[
  {
    "compound.smiles": "Cc1ccc(S(=O)(=O)OC[C@@]2(C)CC[C@]3(C)CC[C@]4(C)C(=C3C2)C=C[C@@H]2[C@@]3(C)CCCNC(C)(C)[C@@H]3CC[C@]24C)cc1",
    "uom": "µM",
    "endpoint.value": 1.84
  },
  {
    "compound.smiles": "CC1(C)CC[C@]23CC[C@]4(C)[C@H](CC[C@@H]5[C@@]6(C)CCCNC(C)(C)[C@@H]6CC[C@]54C)[C@H]2[C@H]1OC3",
    "uom": "µM",
    "endpoint.value": 1.91
  }
]

# input GI50 for `C[C@H]1[C@H](C)CC[C@]2(C(=O)Nc3ccc4ncccc4c3)CC[C@]3(C)C(=CC[C@@H]4[C@@]5(C)CCCNC(C)(C)[C@@H]5CC[C@]43C)[C@H]12` ?
# output 1.76

* * *

System: panel of approximately 60 cancer cell lines
test.details: NCI-60 screen (SRB, 48 h), full panel
condition.parameters: 1 dose 10 µM
This listing pairs compounds with measured Positive Cytostatic Effect (cell lines with percent growth 0 to 50 / total).

Known results for compounds:
[
  {
    "compound": "C=C(C)C1CCC2(CO)CCC3(C)C(CCC4C5(C)CCCNC(C)(C)C5CCC43C)C12 (stereo not shown) [Compound 1, Azepanobetulin]",
    "endpoint.value": "27/59"
  },
  {
    "compound": "Cc1ccc(S(=O)(=O)OC[C@]23CCC(C)(C)C[C@H]2C2=CC[C@@H]4[C@@]5(C)CCCNC(C)(C)[C@@H]5CC[C@@]4(C)[C@]2(C)CC3)cc1 [Compound 15]",
    "endpoint.value": "17/60"
  },
  {
    "compound": "CC1(C)NCCC[C@]2(C)[C@H]3CC=C4[C@@H]5C[C@@](C)(CO)CC[C@]5(C)CC[C@@]4(C)[C@]3(C)CC[C@@H]12 [Compound 5, azepano-glycyrretol]",
    "endpoint.value": "13/58"
  },
  {
    "compound": "CC1(C)CC[C@]2(CO)CC[C@]3(C)C(=CC[C@@H]4[C@@]5(C)CCCNC(C)(C)[C@@H]5CC[C@]43C)[C@@H]2C1 [Compound 3, azepanoerythrodiol]",
    "endpoint.value": "20/57"
  },
  {
    "compound": "CC1(C)NCCC[C@]2(C)[C@H]3CC(=O)[C@H]4[C@@H]5C[C@@](C)(CO)CC[C@]5(C)CC[C@@]4(C)[C@]3(C)CC[C@@H]12 [Compound 17]",
    "endpoint.value": "0/59"
  },
  {
    "compound": "C[C@H]1[C@H](C)CC[C@]2(CO)CC[C@]3(C)C(=CC[C@@H]4[C@@]5(C)CCCNC(C)(C)[C@@H]5CC[C@]43C)[C@H]12 [Compound 4, azepanouvaol]",
    "endpoint.value": "18/59"
  },
  {
    "compound": "CC(=O)[C@@H]1CC[C@]2(CO)CC[C@]3(C)[C@H](CC[C@@H]4[C@@]5(C)CCCNC(C)(C)[C@@H]5CC[C@]43C)[C@@H]12 [Compound 2, azepanomessagenin]",
    "endpoint.value": "0/59"
  },
  {
    "compound": "C=C(C)[C@@H]1CC[C@]2(C)[C@H](CC=C3[C@@H]4[C@@H](C)[C@H](C)CC[C@]4(CO)CC[C@]32C)[C@@]1(C)CCCN [Compound 19]",
    "endpoint.value": "20/60"
  }
]

# input Positive Cytostatic Effect (cell lines with percent growth 0 to 50 / total) for C=C(C)[C@@H]1CC[C@]2(COS(=O)(=O)c3ccc(C)cc3)CC[C@]3(C)[C@@H](CC[C@@H]4[C@@]5(C)CCCNC(C)(C)[C@@H]5CC[C@]43C)[C@@H]12 [Compound 12] ?
# output 11/60

# input Positive Cytostatic Effect (cell lines with percent growth 0 to 50 / total) for CC(C)=C1CCC=C2CC[C@]3(C)[C@H](CC[C@@H]4[C@@]5(C)CCCNC(C)(C)[C@@H]5CC[C@]43C)[C@H]21 [Compound 9] ?
# output 15/58

# input Positive Cytostatic Effect (cell lines with percent growth 0 to 50 / total) for Cc1ccc(S(=O)(=O)OC[C@@]2(C)CC[C@]3(C)CC[C@]4(C)C(=C3C2)C=C[C@@H]2[C@@]3(C)CCCNC(C)(C)[C@@H]3CC[C@]24C)cc1 [Compound 16] ?
# output 12/60

# input Positive Cytostatic Effect (cell lines with percent growth 0 to 50 / total) for C[C@H]1[C@H](C)CC[C@]2(C(=O)Nc3ccc4ncccc4c3)CC[C@]3(C)C(=CC[C@@H]4[C@@]5(C)CCCNC(C)(C)[C@@H]5CC[C@]43C)[C@H]12 [Compound 14] ?
# output 3/59

# input Positive Cytostatic Effect (cell lines with percent growth 0 to 50 / total) for CC1(C)CC[C@]2(C(=O)NC(CO)Cc3ccccc3)CC[C@]3(C)C(=CC[C@@H]4[C@@]5(C)CCCNC(C)(C)[C@@H]5CC[C@]43C)[C@@H]2C1 (stereo partly shown) [Compound 13] ?
# output 10/60

# input Positive Cytostatic Effect (cell lines with percent growth 0 to 50 / total) for C=C(C)[C@@H]1CCC=C2CC[C@]3(C)[C@H](CC[C@@H]4[C@@]5(C)CCCNC(C)(C)[C@@H]5CC[C@]43C)[C@H]21 [Compound 8] ?
# output 7/60

# input Positive Cytostatic Effect (cell lines with percent growth 0 to 50 / total) for C=C(C)[C@@H]1CC[C@]2(C)[C@H](C=CC3=C4C[C@@](C)(CO)CC[C@]4(C)CC[C@]32C)[C@@]1(C)CCCN [Compound 20] ?
# output 8/60

# input Positive Cytostatic Effect (cell lines with percent growth 0 to 50 / total) for CC1(C)CC[C@]23CC[C@]4(C)[C@H](CC[C@@H]5[C@@]6(C)CCCNC(C)(C)[C@@H]6CC[C@]54C)[C@H]2[C@H]1OC3 [Compound 7, Azepanoallobetulin] ?
# output 16/59
